Reference source for all entries: paper PMC5540273

# System: ABL1-phosphorylated;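 further: KINOMEscan kinase panel screen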
# measurement.context: concentration: 1 μM, replicates: in singlicate; n = 1
property.measured: %Inh (%)
The answer is to be given in %; state only the numeric part.

Any idea what %Inh came out for Cc1cc(N2CCC(NS(=O)(=O)c3ccc(F)cc3)CC2)nc(Nc2cccc(C#N)c2)n1.O=C(O)C(F)(F)F on ABL1-phosphorylated?
0

What reported %Inh corresponds to CS(=O)(=O)CCNCc1nc(-c2ccc3ncnc(Nc4ccc(OCc5cccc(F)c5)c(Cl)c4)c3c2)cs1.Cl on ABL1-phosphorylated?
0

Hello, I am looking for reported %Inh with ABL1-phosphorylated for CNc1nccc(-c2c(-c3ccc(F)cc3)ncn2C2CCN(C)CC2)n1 . Could you help?
6

Missing value: %Inh, ABL1-phosphorylated, entry CC(C)N1CCC(n2cnc(-c3ccc(F)cc3)c2-c2ccnc(N)n2)CC1 . Fill in?
19
